# assaySystem: human 5-HT2C receptor (Homo sapiens)
# Sequence (P28335 33-458): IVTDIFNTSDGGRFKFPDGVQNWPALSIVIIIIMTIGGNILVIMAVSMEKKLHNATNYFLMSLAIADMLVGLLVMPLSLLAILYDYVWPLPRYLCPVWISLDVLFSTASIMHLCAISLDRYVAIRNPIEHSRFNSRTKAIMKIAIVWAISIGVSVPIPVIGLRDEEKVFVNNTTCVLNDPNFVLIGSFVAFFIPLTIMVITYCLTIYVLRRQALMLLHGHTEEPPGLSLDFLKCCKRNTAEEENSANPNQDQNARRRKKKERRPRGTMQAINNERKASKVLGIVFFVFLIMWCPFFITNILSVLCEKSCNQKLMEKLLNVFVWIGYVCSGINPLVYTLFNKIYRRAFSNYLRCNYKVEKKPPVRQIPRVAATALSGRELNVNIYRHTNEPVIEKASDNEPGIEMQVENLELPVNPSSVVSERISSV
# testDescription: h5-HT2C affinity, antagonist radioligand [3H]mesulergine
# Assay type: binding
pKi: −log10 of the molar value.
Examples of molecules with documented pKi follow.

{"smiles": "COc1ccc2[nH]cc(CCNCc3ccccc3OC)c2c1", "pKi": 7.49}
{"smiles": "COc1cc(CCNCc2ccccc2Br)c(OC)cc1I", "pKi": 8.06}
{"smiles": "COc1ccc2[nH]cc(CCNCc3cccc(C(F)(F)F)c3)c2c1", "pKi": 6.99}
{"smiles": "COc1ccc2[nH]cc(CCNCc3cccc(F)c3)c2c1", "pKi": 7.32}
{"smiles": "COc1cc(CCNCc2ccc(Br)cc2)c(OC)cc1I", "pKi": 7.34}

---

Examples of compounds with documented pKi follow.
# assaySystem: UniProtKB P08908
# Sequence (P08908 whole entry): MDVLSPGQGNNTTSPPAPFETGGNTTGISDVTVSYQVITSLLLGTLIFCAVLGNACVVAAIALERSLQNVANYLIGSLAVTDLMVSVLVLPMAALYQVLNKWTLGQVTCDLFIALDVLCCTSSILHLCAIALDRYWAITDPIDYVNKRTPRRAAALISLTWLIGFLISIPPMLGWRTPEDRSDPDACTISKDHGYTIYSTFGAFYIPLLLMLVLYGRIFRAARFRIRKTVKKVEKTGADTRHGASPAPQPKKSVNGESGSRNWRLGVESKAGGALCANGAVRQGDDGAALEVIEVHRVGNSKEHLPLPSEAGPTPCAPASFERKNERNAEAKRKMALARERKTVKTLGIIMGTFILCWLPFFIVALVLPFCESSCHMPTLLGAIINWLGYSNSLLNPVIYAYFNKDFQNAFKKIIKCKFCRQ
# testDescription: PDSP screening affinity 5-HT1A
# Assay type: binding
# details: 5-HT1A affinity
pKi: −log10 of the molar value.

{"compound": "COc1ccc2[nH]cc(CCNCc3cccc(C(F)(F)F)c3)c2c1 [Compound 5k]", "pKi": 6.62}
{"compound": "COc1ccc2[nH]cc(CCNCc3ccccc3Br)c2c1 [Compound 5d]", "pKi": 6.54}
{"compound": "COc1ccc(CNCCc2cc(OC)c(I)cc2OC)cc1 [Compound 4b]", "pKi": 5.97}
{"compound": "COc1ccc2[nH]cc(CCNCc3cccc(I)c3)c2c1 [Compound 5i]", "pKi": 6.91}
{"compound": "COc1cc(CCNCc2ccc(Br)cc2)c(OC)cc1I [Compound 4e]", "pKi": 6.19}
{"compound": "COc1ccc2[nH]cc(CCNCc3cccc(F)c3)c2c1 [Compound 5g]", "pKi": 6.53}
{"compound": "COc1cc(CCNCc2ccccc2Br)c(OC)cc1I [Compound 4c]", "pKi": 5.94}
{"compound": "COc1ccc2[nH]cc(CCNCc3ccc(Br)cc3)c2c1 [Compound 5f]", "pKi": 7.11}
{"compound": "COc1ccc2[nH]cc(CCNCc3cccc(SC)c3)c2c1 [Compound 5l]", "pKi": 6.90}
{"compound": "COc1cc(CCNCc2cccc(Br)c2)c(OC)cc1I [Compound 4d]", "pKi": 6.17}

---

# assaySystem: 5-HT6 (Homo sapiens, UniProt P50406)
# Sequence (P50406 whole entry): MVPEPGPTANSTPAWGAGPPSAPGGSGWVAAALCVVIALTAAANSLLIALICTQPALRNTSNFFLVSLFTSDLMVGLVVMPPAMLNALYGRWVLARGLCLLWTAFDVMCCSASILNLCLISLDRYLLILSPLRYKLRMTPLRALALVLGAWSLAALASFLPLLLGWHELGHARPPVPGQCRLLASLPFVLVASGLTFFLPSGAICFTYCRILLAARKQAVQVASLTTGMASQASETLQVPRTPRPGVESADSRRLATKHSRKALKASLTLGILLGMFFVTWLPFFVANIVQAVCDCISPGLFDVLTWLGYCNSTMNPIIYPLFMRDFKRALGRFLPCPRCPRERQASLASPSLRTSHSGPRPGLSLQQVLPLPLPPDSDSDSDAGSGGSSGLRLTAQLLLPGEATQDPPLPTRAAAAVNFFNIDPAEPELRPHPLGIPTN
# testDescription: PDSP screening affinity 5-HT6
# Format: binding
# details: 5-HT6 affinity
Examples of molecules with documented Ki follow.
parameter: Ki (nM)

{"smiles": "COc1ccc2[nH]cc(CCNCc3cccc(I)c3)c2c1", "parameter": "Ki", "recordedResult": 27}
{"smiles": "COc1cccc(CNCCc2cc(OC)c(I)cc2OC)c1", "parameter": "Ki", "recordedResult": 67}
{"smiles": "COc1ccc2[nH]cc(CCNCc3cccc(Cl)c3)c2c1", "parameter": "Ki", "recordedResult": 50}
{"smiles": "COc1cccc(CNCCc2c[nH]c3ccc(OC)cc23)c1", "parameter": "Ki", "recordedResult": 25}
{"smiles": "COc1cc(CCNCc2ccccc2Br)c(OC)cc1I", "parameter": "Ki", "recordedResult": 257}
{"smiles": "COc1ccc2[nH]cc(CCNCc3cccc(SC)c3)c2c1", "parameter": "Ki", "recordedResult": 9.7}
{"smiles": "COc1ccc2[nH]cc(CCNCc3ccccc3Br)c2c1", "parameter": "Ki", "recordedResult": 203}
